Tested on: SF-295 CNS
METHOD_NOTES: NCI-60 one-dose screen, 48 h (100 = growth as untreated, 0 = no growth, -100 = all killed)
TEST_PARAMETERS: 10 µM unless noted
This is part of a sample that, as a whole, favours compounds with a hit. Of some 83,000 tested, about 20% had one in any assay.
// growth lookup, one value per entry
ENDPOINT_NAME: growth (%)

INSERT INTO measurements (compound, endpoint_name, units_label, value_measured) VALUES
  ('CCCCn1sc(=O)n(Cc2ccc(CNC(=O)OCc3ccc4c(Br)cc(Br)c(O)c4n3)cc2)c1=O', 'growth', '%', 13.7),
  ('CN(Cc1cnc2nc(N)nc(N)c2n1)c1c(Cl)cc(C(=O)NC(CCC(=O)O)C(=O)O)cc1Cl (centres undefined)', 'growth', '%', 2.98),
  ('C=C(C)[C@@H]1CC[C@]2(CO)CC[C@]3(C)[C@H](CC[C@@H]4[C@@]5(C)CCC(NCCc6ccc(O)cc6)C(C)(C)[C@@H]5CC[C@]43C)[C@@H]12 (some centres undefined)', 'growth', '%', -95.8),
  ('Cc1c(N2CN3C[C@H](C)N4CN(c5c(C)n(C)n(-c6ccccc6)c5=O)CN5C[C@@H](C)N(C2)C3C54)c(=O)n(-c2ccccc2)n1C (some centres undefined)', 'growth', '%', 99.3),
  ('CC(C)CCSc1nc(Nc2ccccc2)c(C#N)c(-c2ccccc2)n1', 'growth', '%', 32),
  ('Cc1cc(N2CCN(C)CC2)nc(NCc2cc(Nc3ccnc4cc(Cl)ccc34)ccc2F)n1', 'growth', '%', -70.1),
  ('Fc1ccc(CNc2c3ccccc3nc3ccccc23)cc1', 'growth', '%', 27.6),
  ('Cn1c(=O)c2c(c3ccccc31)OC(N)=C(C#N)C21C(=O)c2ccccc2C1=O', 'growth', '%', 102),
  ('Cc1ccccc1OCC(O)COc1ccccc1C', 'growth', '%', 98.5);

###

Tested on: EKVX NSCLC
METHOD_NOTES: NCI-60 one-dose screen, 48 h (100 = growth as untreated, 0 = no growth, -100 = all killed)
TEST_PARAMETERS: 10 µM unless noted
The panel holds about 83,000 compounds, 20% with a hit somewhere; the sample as a whole holds those more often.
// growth lookup, one value per entry
ENDPOINT_NAME: growth (%)

INSERT INTO measurements (compound, endpoint_name, value_measured) VALUES
  ('CCOC(=O)c1c(C)nc2c(c1N)CC(=O)N2Cc1cc(OC)c(OC)c(OC)c1', 'growth', 51.6),
  ('COc1cc2cc(Oc3ccc(NC(=O)Nc4ccccc4)cc3)c(C)nc2cc1OCCN1CCCCC1', 'growth', 99.8),
  ('CC(=O)Nc1c(Cl)cc(Cl)c2c1Cc1cc([N+](=O)[O-])ccc1-2', 'growth', 59.4),
  ('CN(Cc1cnc2nc(N)nc(N)c2n1)c1c(Cl)cc(C(=O)NC(CCC(=O)O)C(=O)O)cc1Cl (stereo not drawn)', 'growth', 42.4),
  ('CC/C(Cc1ccccc1)=C(\c1ccc(OCCN2CCCCCC2)cc1)c1ccc(OC(=O)NCc2ccccc2)cc1', 'growth', 69.5),
  ('COC(=O)C1=C(C)NC(C)=C(C(=O)OCC(C)C)C1c1ccccc1[N+](=O)[O-] (stereo not drawn)', 'growth', 58.3),
  ('O=C1N[C@@H]2[C@@H](O)[C@@H](O)[C@H](O)C[C@H]2c2cc3c(c(O)c21)OCCO3', 'growth', -14.3),
  ('CC[C@@H](c1ccc2cc(OC)ccc2c1)C(C)(C)C(=O)F', 'growth', 96.1),
  ('CN1CCN(Cc2cc(NC(=O)c3cccc(C#Cc4cccc5[nH]nc(N)c45)c3)cc(C(F)(F)F)c2)CC1', 'growth', 46),
  ('O=c1oc2c(cnc3ccccc32)cc1-c1cccs1', 'growth', 103),
  ('C=CCn1c(SCC(=O)Nc2ccc(C(=O)/C=C/c3cc(OC)c(OC)c(OC)c3)cc2)nnc1-c1cc(-c2ccc(OC)cc2)nc2ccccc12', 'growth', 100),
  ('Clc1nn2c(Cn3cnc4c(NCc5ccccc5)ncnc43)nnc2c2ccccc12', 'growth', 52),
  ('Oc1c(I)cc(-c2nc3ccccc3s2)cc1CN(Cc1ccccn1)Cc1ccccn1', 'growth', 8.07),
  ('COc1cc(/C=N/Nc2ccccc2F)cc(OC)c1OC', 'growth', 87.4),
  ('COC(=O)/C=C1/SC(=Nc2cccc(Cl)c2)N(CCc2c[nH]c3ccc(O)cc23)C1=O', 'growth', 45.7),
  ('CNC(=O)c1c(NC(=O)c2ccc(C(C)(C)C)cc2)sc2c(CN(C)C)c(O)ccc12', 'growth', 63.3),
  ('CC1O[C@@H]2C[C@@](O)([C@H]1O)n1c3ccccc3c3c4c(c5c6ccccc6n2c5c31)C(=O)NC4=O (stereo partly drawn)', 'growth', 68.7),
  ('CCc1cccc(Sc2cc(C(=O)N3Cc4ccc(OCCN(C)C)cc4C3)ccc2O)c1', 'growth', 39.2),
  ('CN(C)c1ccc(/C=C2/C=C(c3ccccc3)OC2=O)cc1', 'growth', 109),
  ('COc1cccc(/C=C/C(=O)c2cc3c(N)c(C(=O)Nc4cccc(Cl)c4C)sc3nc2C)c1', 'growth', 39.8),
  ('S=c1[nH]c2cc(Cl)ccc2o1', 'growth', 99.3),
  ('CCN1C(=O)N(CC)C2C1NN=c1s/c(=C\c3cc4ccccc4[nH]3)c(=O)n12 (stereo not drawn)', 'growth', 54.5),
  ('CC(C)CSc1oc(-c2ccccc2)nc1S(=O)(=O)c1ccccc1', 'growth', 88.8),
  ('C=CC(=O)N1CCN(c2ccc3cccc(NC(=O)c4cnc(C)cn4)c3n2)CC1', 'growth', 66.6),
  ('CN1CCN(Cc2ccc(NC(=O)c3cncc(C#Cc4cncc5ncccc45)c3)cc2C(F)(F)F)CC1', 'growth', 39.2),
  ('FC(F)(F)c1[nH]ncc1-c1nc2c(N3CCCCC3)cc3[nH]ncc3c2c2c1CCCC2', 'growth', 13.2),
  ('C=C1C(=O)O[C@H]2[C@H]1CC/C(COC(=O)NCc1ccc(Cn3c(=O)sn(-c4ccc(OC)cc4)c3=O)cc1)=C\CC[C@@]1(C)O[C@@H]21', 'growth', 97.1),
  ('O=C1Nc2ccc(F)cc2/C1=C\c1nc(-c2ccccc2F)n2ccccc12', 'growth', 102),
  ('Cc1ccc(C)c(-n2c(-c3ccc(Br)cc3)csc2=NC(=O)c2ccccc2F)c1', 'growth', 76.1),
  ('COc1ccc(/C(C)=C(\c2ccc(Cl)cc2)c2ccc(OCCN3CCCC3)cc2)cc1', 'growth', 61.2),
  ('CS(=O)(=O)Cc1cnc(C2OCCO2)s1', 'growth', 99),
  ('O=C(Nc1cccnc1Nc1ccc(Cl)cc1)c1cn(Cc2ccc(F)cc2)nn1', 'growth', 92.6),
  ('COC(=O)C1=C(C(=O)Nc2cccnc2)C2OC1(C(Cc1ccccc1)Oc1ccccc1)C1OC21 (stereo not drawn)', 'growth', 101);
